All figures here come from PubChem BioAssay AID1963978.

# System: 616215-338-R-J1-PDC spheroids with HUVEC/MSC, viability;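 further: spheroids exposed to agents for seven days before the viability read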
# Test Name: Anticancer human tumor 616215-338-R-J1-PDC patient-derived colon adenocarcinoma cell line growth inhibition [PI3K]
# Stated Conditions: second compound 0.0316 µM; first compound 3.16 µM; active compounds read low
Property Name: viability, T/C (%)
Just the number in %, nothing appended.

Would you please look over these solved cases?
Compound: C[C@@H](NC(=O)c1ncnc(N)c1Cl)c1ncc(C(=O)Nc2cc(C(F)(F)F)c(Cl)cn2)s1 + Cc1nc(NC(=O)N2CCCC2C(N)=O)sc1-c1ccnc(C(C)(C)C(F)(F)F)c1
viability, T/C, %: 112
//
Compound: C#Cc1c(F)ccc2cc(O)cc(-c3ncc4c(N5CC6CCC(C5)N6)nc(OCC56CCCN5CC(F)C6)nc4c3F)c12 (stereo not given) + Cc1nc(NC(=O)N2CCCC2C(N)=O)sc1-c1ccnc(C(C)(C)C(F)(F)F)c1
viability, T/C, %: 82
//
Compound: CCCS(=O)(=O)Nc1ccc(F)c(C(=O)c2c[nH]c3ncc(-c4ccc(Cl)cc4)cc23)c1F + CC(Nc1ccc2c(c1)OCCn1cc(N3C(=O)OCC3C(F)F)nc1-2)C(N)=O
viability, T/C, %: 72.9
//
Compound: C[C@@H](NC(=O)c1ncnc(N)c1Cl)c1ncc(C(=O)Nc2cc(C(F)(F)F)c(Cl)cn2)s1 + CC(Nc1ccc2c(c1)OCCn1cc(N3C(=O)OCC3C(F)F)nc1-2)C(N)=O
viability, T/C, %: 115
//
Compound: CNC(=O)c1ccc(N2C(=S)N(c3ccc(C#N)c(C(F)(F)F)c3)C(=O)C2(C)C)cc1F + COc1c(OCCCN2CCOCC2)ccc2c3n(c(=NC(=O)c4cnc(N)nc4)nc12)CCN3
viability, T/C, %: 96.5
//
Compound: C#Cc1c(F)ccc2cc(O)cc(-c3ncc4c(N5CC6CCC(C5)N6)nc(OCC56CCCN5CC(F)C6)nc4c3F)c12 (stereo not given) + COc1c(OCCCN2CCOCC2)ccc2c3n(c(=NC(=O)c4cnc(N)nc4)nc12)CCN3
viability, T/C, %: 81.5

Give the reported viability, T/C for this compound. CC(Cn1ccc(-c2ccc(C#N)c(Cl)c2)n1)NC(=O)c1cc(C(C)O)[nH]n1 (stereo not given) + CC(Nc1ccc2c(c1)OCCn1cc(N3C(=O)OCC3C(F)F)nc1-2)C(N)=O
96.3

Give the reported viability, T/C for this compound. CC1(C)CCC(CN2CCN(c3ccc(C(=O)NS(=O)(=O)c4ccc(NCC5CCOCC5)c([N+](=O)[O-])c4)c(Oc4cnc5[nH]ccc5c4)c3)CC2)=C(c2ccc(Cl)cc2)C1 + CC(Nc1ncnc2nc[nH]c12)c1cc2cccc(Cl)c2c(=O)n1-c1ccccc1
71.3

Give the reported viability, T/C for this compound. CC1(C)CCC(CN2CCN(c3ccc(C(=O)NS(=O)(=O)c4ccc(NCC5CCOCC5)c([N+](=O)[O-])c4)c(Oc4cnc5[nH]ccc5c4)c3)CC2)=C(c2ccc(Cl)cc2)C1 + CC(Nc1ccc2c(c1)OCCn1cc(N3C(=O)OCC3C(F)F)nc1-2)C(N)=O
86.9

Give the reported viability, T/C for this compound. CNC(=O)c1ccc(N2C(=S)N(c3ccc(C#N)c(C(F)(F)F)c3)C(=O)C2(C)C)cc1F + Cc1nc(NC(=O)N2CCCC2C(N)=O)sc1-c1ccnc(C(C)(C)C(F)(F)F)c1
95.6
